biological target: Cannabinoid receptor 1 (Homo sapiens, UniProt P21554); experiment: Agonist activity at human CB1 receptor expressed in CHO-K1 cells assessed as inhibition of forskolin-stimulated cAMP production
Sequence (P21554 whole entry): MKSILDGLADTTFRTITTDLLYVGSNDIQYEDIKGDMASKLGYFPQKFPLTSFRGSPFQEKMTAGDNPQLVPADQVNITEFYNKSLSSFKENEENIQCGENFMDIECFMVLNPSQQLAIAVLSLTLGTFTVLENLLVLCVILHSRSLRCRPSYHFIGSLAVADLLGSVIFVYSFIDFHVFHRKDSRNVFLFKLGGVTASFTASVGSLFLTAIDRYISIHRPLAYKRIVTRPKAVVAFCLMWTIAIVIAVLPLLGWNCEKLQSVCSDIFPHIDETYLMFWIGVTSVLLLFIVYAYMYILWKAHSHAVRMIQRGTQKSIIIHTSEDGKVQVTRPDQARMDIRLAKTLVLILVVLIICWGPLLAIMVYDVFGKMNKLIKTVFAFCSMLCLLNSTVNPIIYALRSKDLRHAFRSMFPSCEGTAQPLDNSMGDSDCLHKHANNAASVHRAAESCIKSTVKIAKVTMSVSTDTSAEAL
Sorting guide: entries reporting EC50 beneath 3000 nM go in the label 1 pile, the rest go in the label 0 pile.

CN(C)C1(c2nc(-c3cc(C(C)(C)C)c(O)c(C(C)(C)C)c3)co2)CCOCC1    label 1
CCN(CC)C1(c2nc(-c3cc(C(C)(C)C)c(O)c(C(C)(C)C)c3)cs2)CCOCC1    label 0
CN(C)C1(c2nc(-c3cc(C(C)(C)C)c(O)c(C(C)(C)C)c3)cs2)CCSCC1    label 1
CC(C)(C)c1cc(-c2csc(C3(N4CCCCC4)CCOCC3)n2)cc(C(C)(C)C)c1O    label 1
CN(C)C1(c2nc(-c3cc(C(C)(C)C)c(O)c(C(C)(C)C)c3)cs2)CCOCC1    label 1
CN1CCCCC1Cn1cc(C(=O)c2cc([N+](=O)[O-])ccc2I)c2ccccc21 (stereo unspecified)    label 1

---

species on record: Homo sapiens; assay: Selectivity ratio of EC50 for human CB1 receptor to EC50 for human CB2 receptor
experimental_readout: Selectivity ratio

CN(C)C1(c2nc(-c3cc(C(C)(C)C)c(O)c(C(C)(C)C)c3)co2)CCOCC1    32
CN(C)C1(c2nc(-c3cc(C(C)(C)C)c(O)c(C(C)(C)C)c3)cs2)CCSCC1    40
CN(C)C1(c2nc(-c3cc(C(C)(C)C)c(O)c(C(C)(C)C)c3)cs2)CCOCC1    64
CN1CCCCC1Cn1cc(C(=O)c2cc([N+](=O)[O-])ccc2I)c2ccccc21 (stereo unspecified)    63
CC(C)(C)c1cc(-c2csc(C3(N4CCCCC4)CCOCC3)n2)cc(C(C)(C)C)c1O    56
CCN(CC)C1(c2nc(-c3cc(C(C)(C)C)c(O)c(C(C)(C)C)c3)cs2)CCOCC1    56

---

assay: Antioxidant activity assessed as inhibition of lipid peroxidation; type: physicochemical
pIC50: −log10 of the molar value.
experimental_readout: pIC50

CN(C)C1(c2nc(-c3cc(C(C)(C)C)c(O)c(C(C)(C)C)c3)cs2)CCOCC1    6.30

---

organism: Homo sapiens; assay: Selectivity ratio of Ki for human CB1 receptor to Ki for human CB2 receptor
experimental_readout: Selectivity ratio

CNC1(c2nc(-c3cc(C(C)(C)C)c(O)c(C(C)(C)C)c3)cs2)CCOCC1    16
CC(C)(C)c1cc(-c2csc(C3(N4CCCCC4)CCOCC3)n2)cc(C(C)(C)C)c1O    43
CN(C)C1(c2nc(-c3cc(C(C)(C)C)c(O)c(C(C)(C)C)c3)cs2)CCOCC1    30
CN1CCCCC1Cn1cc(C(=O)c2cc([N+](=O)[O-])ccc2I)c2ccccc21 (centres undefined)    95
CC(C)(C)c1cc(-c2csc(C3(N)CCOCC3)n2)cc(C(C)(C)C)c1O    2.6
CN(C)C1(c2nc(-c3cc(C(C)(C)C)cc(C(C)(C)C)c3)cs2)CCOCC1    37
CN(C)C1(c2nc(-c3cc(C(C)(C)C)c(O)c(C(C)(C)C)c3)cs2)CCSCC1    29
CCN(CC)C1(c2nc(-c3cc(C(C)(C)C)c(O)c(C(C)(C)C)c3)cs2)CCOCC1    43
CN(C)C1(c2nc(-c3cc(C(C)(C)C)c(O)c(C(C)(C)C)c3)co2)CCOCC1    16

---

molecular target: Cannabinoid receptor 2 (Homo sapiens); test: Agonist activity at human CB2 receptor expressed in CHO-K1 cells assessed as inhibition of forskolin-stimulated cAMP production
Sequence (P34972 whole entry): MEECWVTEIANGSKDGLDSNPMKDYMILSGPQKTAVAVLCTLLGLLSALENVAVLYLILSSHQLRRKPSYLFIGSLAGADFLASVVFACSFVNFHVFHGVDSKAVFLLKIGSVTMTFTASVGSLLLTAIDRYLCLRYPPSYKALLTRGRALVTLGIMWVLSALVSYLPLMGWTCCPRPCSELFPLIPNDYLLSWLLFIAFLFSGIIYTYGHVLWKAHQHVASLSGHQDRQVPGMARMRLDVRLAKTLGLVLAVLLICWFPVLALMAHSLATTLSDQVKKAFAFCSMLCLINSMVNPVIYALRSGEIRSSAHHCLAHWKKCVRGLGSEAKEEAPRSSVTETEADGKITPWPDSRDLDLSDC
Examples of compounds with documented EC50 follow.
experimental_readout: EC50 (nM)

CN(C)C1(c2nc(-c3cc(C(C)(C)C)c(O)c(C(C)(C)C)c3)co2)CCOCC1    43.6
CN1CCCCC1Cn1cc(C(=O)c2cc([N+](=O)[O-])ccc2I)c2ccccc21 (stereo unspecified)    16.4
CC(C)(C)c1cc(-c2csc(C3(N4CCCCC4)CCOCC3)n2)cc(C(C)(C)C)c1O    40
CN(C)C1(c2nc(-c3cc(C(C)(C)C)c(O)c(C(C)(C)C)c3)cs2)CCOCC1    42
CN(C)C1(c2nc(-c3cc(C(C)(C)C)c(O)c(C(C)(C)C)c3)cs2)CCSCC1    59.1
CCN(CC)C1(c2nc(-c3cc(C(C)(C)C)c(O)c(C(C)(C)C)c3)cs2)CCOCC1    72

---

target: Cannabinoid receptor 1 (Homo sapiens); test: Displacement of [3H]CP55940 from human CB1 receptor expressed in CHO-K1 cell membrane by competitive displacement assay; assay type: cell membranes; conditions: read-out: Ki
pKi: −log10 of the molar value.
experimental_readout: pKi

CN(C)C1(c2nc(-c3cc(C(C)(C)C)c(O)c(C(C)(C)C)c3)co2)CCOCC1    6.09
CN(C)C1(c2nc(-c3cc(C(C)(C)C)c(O)c(C(C)(C)C)c3)cs2)CCSCC1    5.63
CN(C)C1(c2nc(-c3cc(C(C)(C)C)c(O)c(C(C)(C)C)c3)cs2)CCOCC1    6.07
CNC1(c2nc(-c3cc(C(C)(C)C)c(O)c(C(C)(C)C)c3)cs2)CCOCC1    5.64
CC(C)(C)c1cc(-c2csc(C3(N4CCCCC4)CCOCC3)n2)cc(C(C)(C)C)c1O    5.66
CC(C)(C)c1cc(-c2csc(C3(N)CCOCC3)n2)cc(C(C)(C)C)c1O    5.16
CN(C)C1(c2nc(-c3cc(C(C)(C)C)cc(C(C)(C)C)c3)cs2)CCOCC1    5.33
CN1CCCCC1Cn1cc(C(=O)c2cc([N+](=O)[O-])ccc2I)c2ccccc21 (centres undefined)    5.68
CCN(CC)C1(c2nc(-c3cc(C(C)(C)C)c(O)c(C(C)(C)C)c3)cs2)CCOCC1    5.48

---

This section lists pKi readings for Cannabinoid receptor 2 (Homo sapiens, UniProt P34972).
pKi: −log10 of the molar value.
experimental_readout: pKi

CN(C)C1(c2nc(-c3cc(C(C)(C)C)c(O)c(C(C)(C)C)c3)co2)CCOCC1    7.29
CN(C)C1(c2nc(-c3cc(C(C)(C)C)c(O)c(C(C)(C)C)c3)cs2)CCSCC1    7.09
CN(C)C1(c2nc(-c3cc(C(C)(C)C)cc(C(C)(C)C)c3)cs2)CCOCC1    6.90
CN(C)C1(c2nc(-c3cc(C(C)(C)C)c(O)c(C(C)(C)C)c3)cs2)CCOCC1    7.53
CCN(CC)C1(c2nc(-c3cc(C(C)(C)C)c(O)c(C(C)(C)C)c3)cs2)CCOCC1    7.11
CC(C)(C)c1cc(-c2csc(C3(N)CCOCC3)n2)cc(C(C)(C)C)c1O    5.57
CC(C)(C)c1cc(-c2csc(C3(N4CCCCC4)CCOCC3)n2)cc(C(C)(C)C)c1O    7.30
CC(C)(C)c1cc(-c2csc(C3(N4CCOCC4)CCOCC3)n2)cc(C(C)(C)C)c1O    6.75
CN1CCCCC1Cn1cc(C(=O)c2cc([N+](=O)[O-])ccc2I)c2ccccc21 (centres undefined)    7.66

This collection of values is drawn from ChEMBL document CHEMBL3580586.
